Assay: Metabolic stability in rat liver microsomes assessed as hepatic extraction ratio
Assay type: ADME, Microsome
Settings: read-out: ERH
reported property: hepatic extraction ratio

For the molecule shown here, Cn1nc(C(=O)N(Cc2ccccc2)Cc2ccc(C(=O)O)cc2)c2c1-c1cc(Cl)ccc1OC2 [NIDUFEXOR] , give the reported hepatic extraction ratio.
< 0.18

---

Assay: AUC in Wistar rat plasma at 10 mg/kg, po
Type: ADME, organism-based
reported property: AUC (µM·h)
// return numeric value only (unit: µM·h, not printed)

Can you look up the measured AUC of Cn1nc(C(=O)N(Cc2ccccc2)Cc2ccc(C(=O)O)cc2)c2c1-c1cc(Cl)ccc1OC2 [NIDUFEXOR] for me?
24.5

---

Molecular target: G-protein coupled bile acid receptor 1 (Homo sapiens)
Sequence (Q8TDU6 whole entry): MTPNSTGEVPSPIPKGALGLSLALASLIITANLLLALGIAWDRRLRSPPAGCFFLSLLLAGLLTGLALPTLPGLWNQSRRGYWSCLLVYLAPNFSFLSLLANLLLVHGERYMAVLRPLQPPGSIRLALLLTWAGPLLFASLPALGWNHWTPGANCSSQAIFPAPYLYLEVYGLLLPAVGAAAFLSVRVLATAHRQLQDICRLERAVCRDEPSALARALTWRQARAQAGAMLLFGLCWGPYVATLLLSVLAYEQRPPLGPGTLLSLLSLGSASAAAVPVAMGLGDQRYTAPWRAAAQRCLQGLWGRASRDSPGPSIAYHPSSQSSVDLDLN
Test: Agonist activity at human GPBAR1 expressed in Jurkat cells assessed as increase in intracellular cAMP level incubated for 1 hr by fluorescence based assay
reported property: EC50

Query for G-protein coupled bile acid receptor 1 (Homo sapiens): what EC50 does the record show for Cn1nc(C(=O)N(Cc2ccccc2)Cc2ccc(C(=O)O)cc2)c2c1-c1cc(Cl)ccc1OC2 [NIDUFEXOR] ?
> 80 µM

---

Experiment: Cmax in Wistar rat at 100 mg/kg, po
Assay type: ADME, organism-based
Parameters: dose 100 mg/kg, route oral
Conditions: in vivo
reported property: Cmax (µM)
Expressed in µM, but write only the number.

Form field: reported Cmax of Cn1nc(C(=O)N(Cc2ccccc2)Cc2ccc(C(=O)O)cc2)c2c1-c1cc(Cl)ccc1OC2 [NIDUFEXOR]
80.9

---

Biological target: Glucocorticoid receptor (Homo sapiens)
Sequence (P04150 whole entry): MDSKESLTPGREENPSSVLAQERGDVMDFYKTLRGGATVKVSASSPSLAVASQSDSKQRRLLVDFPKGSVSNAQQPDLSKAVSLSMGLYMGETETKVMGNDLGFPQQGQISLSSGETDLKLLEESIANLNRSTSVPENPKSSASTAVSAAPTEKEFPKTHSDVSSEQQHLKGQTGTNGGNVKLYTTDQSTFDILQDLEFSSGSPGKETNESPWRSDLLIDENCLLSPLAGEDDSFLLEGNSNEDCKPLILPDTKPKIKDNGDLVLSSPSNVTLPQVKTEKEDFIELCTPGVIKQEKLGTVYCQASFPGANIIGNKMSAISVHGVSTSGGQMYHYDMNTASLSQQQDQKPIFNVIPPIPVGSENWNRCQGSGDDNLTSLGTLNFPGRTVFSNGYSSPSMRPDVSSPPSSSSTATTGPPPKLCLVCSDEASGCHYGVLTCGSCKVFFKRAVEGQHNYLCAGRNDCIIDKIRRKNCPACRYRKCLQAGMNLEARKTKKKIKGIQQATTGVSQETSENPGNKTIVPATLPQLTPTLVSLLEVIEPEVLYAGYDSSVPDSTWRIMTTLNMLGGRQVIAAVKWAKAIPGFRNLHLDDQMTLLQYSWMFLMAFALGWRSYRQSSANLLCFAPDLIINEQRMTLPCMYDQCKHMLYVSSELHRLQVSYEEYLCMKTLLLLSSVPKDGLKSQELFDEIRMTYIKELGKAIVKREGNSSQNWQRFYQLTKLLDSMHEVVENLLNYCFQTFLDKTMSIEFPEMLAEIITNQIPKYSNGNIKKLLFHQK
Test: Agonist activity at GAL4-fused Glucocorticoid receptor (unknown origin) expressed in HEK293T cells incubated for 24 by BrightGlo reagent based assay
Type: cell-based
pEC50: −log10 of the molar value.
reported property: pEC50

# input compound: Cn1nc(C(=O)N(Cc2ccccc2)Cc2ccc(C(=O)O)cc2)c2c1-c1cc(Cl)ccc1OC2 [NIDUFEXOR] ; wanted: its pEC50
< 5.00
